System: SF-295
Experiment: NCI tumour cell line growth inhibition, 48 h
Active and inactive are the calls of the source. Rule as the data show it: active = GI50 up to about 1.1 µM and inactive = higher.
Property measured: GI50

| Molecule | Recorded measurement |
| --- | --- |
| COc1ccc(/N=c2\ssc3c(=S)ssc23)cc1 | 53.3 µM (inactive) |
| CN(C)CCNC(=O)c1cc(Cl)cc2cc3ccccc3nc12 | 0.492 µM (active) |
| CN(C1=NCCO1)c1cccc2ccccc12 | > 10 µM (inactive) |
| O=C(Nc1ccccc1C(=O)NCc1ccccc1)/C(=C/c1ccccc1O)NC(=O)c1ccccc1 | 49.9 µM (inactive) |
| Cc1cc(C(=C2C=CC(=N)C=C2)c2ccc(N)cc2)ccc1N | 0.564 µM (active) |
| CCOC(=O)CCC1(CCC(=O)OCC)CCCCCCCCC(CCC(=O)OCC)(CCC(=O)OCC)C(=O)C1=O | > 100 µM (inactive) |
| O=C(CC(O)(c1ccccc1)c1ccc(Cl)cc1)NC(=O)c1ccccc1O (centres undefined) | 4.4 µM (inactive) |
| COC1=NN2C(OC)(c3ccccc3)c3c(-c4ccccc4)sc(-c4ccccc4)c3C2(c2ccccc2)S1 (centres undefined) | > 100 µM (inactive) |

# batch: return GI50 for each of the 5 molecules below
1. O=C1C(NS(=O)(=O)c2ccccc2)=C(n2ccnc2)C(=O)c2ccccc21
2. CCCCCCCCCCCCCCCCOCC(CC(F)(F)P(=O)(O)O)OC(C)=O (centres undefined)
3. COc1ccc(/N=N/c2c(-c3ccccc3)nn(C(=O)CC(=O)Nc3ccccc3Cl)c2-c2ccccc2)cc1
4. O=c1c2c3c(sc2nc2n1N=C(c1ccc(Br)cc1)CS2)CCCC3
5. O=C(Nc1c(C(F)(F)F)cc(-c2ccccc2)[nH]c1=O)N1CCOCC1

["> 100 µM (inactive)", "> 50 µM (inactive)", "> 100 µM (inactive)", "> 100 µM (inactive)", "62.1 µM (inactive)"]

I'd like to know its GI50. The molecule in question is CC#C[C@]1(O)CCC2[C@@H]3CCC4=CC(=O)CCC4=C3[C@@H](c3ccc(N(C)C)cc3)C[C@@]21C (some centres undefined) 10.7 µM (inactive)

---

Test system: ACHN
Assay: NCI tumour cell line growth inhibition, 48 h
The source made the active and inactive calls. No stated cut-off is given here; in the data, active = GI50 up to about 1.1 µM and inactive = higher.
Provide the reported GI50 of each item.

# count of solved cases: 5
| Compound | GI50 |
| --- | --- |
| CC(C)(C)OC(=O)N1N=CCC1c1ccccc1 (stereo unspecified) | > 100 µM (inactive) |
| N#CC12COC3(CCCCC3C1(C#N)C#N)OC2=N (stereo unspecified) | 15.1 µM (inactive) |
| C=C(C)CNCC(=C)C.Oc1c(Cl)c(Cl)c(Cl)c(Cl)c1Cl | 21.6 µM (inactive) |
| CN(C)CCC1(C2=CCCC2)CC/C(=C\c2ccc(Cl)cc2)C1=O (stereo unspecified) | 11.5 µM (inactive) |
| Cn1c2ccccc2n2c3ccccc3c3nnc(N)c-3c12 | 91.2 µM (inactive) |

# batch: return GI50 for each of the 5 compounds below
1. C=C[C@@]1(C)CC(=O)[C@]2(O)[C@@]3(C)[C@@H](OC(C)=O)CCC(C)(C)[C@@H]3[C@H](O)[C@H](OC(C)=O)[C@@]2(C)O1
2. Cc1ccc(C2=Nc3cc(C)c(Cl)cc3S(=O)(=O)NN2)cc1
3. O=c1c(Cl)c(Cl)cnn1CCc1ccncc1
4. CCOc1c2ccsc2c(OCC)c2ccsc12
5. Cc1ccc(C(=O)Cc2nc3c([nH]c2=O)c(C)nn3-c2ccccc2)c(C)c1

> 100 µM (inactive)
65.5 µM (inactive)
19.2 µM (inactive)
7.1 µM (inactive)
> 10 µM (inactive)

I'd like to know its GI50. The compound in question is `COc1ccc(S(=O)(=O)N(C)CC(=O)O)cc1` > 100 µM (inactive)

Just for reference, ChEMBL document CHEMBL1201862 is where these values come from.
